# Test system: 36 cancer cell lines
# Protocol details: Anticancer activity profiling against 36 cell lines (IC50)
# Format: cell-based
# Measurement setup: Pancreas, cell line 1657L (Xenograft), adeno ca, md; read-out: IC50
Readout: IC50 (µM)
Value expressed in µM; do not type the unit.

I would be grateful if you could share the reported IC50 for CC(C)=CCC/C(C)=C/CC/C(C)=C/CN1C(=O)c2cccc(O)c2N(C)c2c(O)cc(O)cc21 [Compound 2] .
1.78

* * *

# System: MDA-MB-231 (mammary gland adenocarcinoma)
# Protocol details: In vitro cytotoxic activity (GI50), method (b), propidium iodide
# Format: cell-based
# Measurement setup: Homo sapiens, 96 hrs
Readout: GI50 (µM)
Express the result in µM but write the number alone.

Report GI50 for CCC(C)N1c2c(O)cccc2C(=O)N(C/C=C(\C)CC/C=C(\C)CCC=C(C)C)c2cc(O)cc(O)c21 (stereo not shown) [Compound 77] please.
5.62

Requested read-out: GI50. Entry: CCCCCCN1c2c(O)cccc2C(=O)N(C/C=C(\C)CC/C=C(\C)CCC=C(C)C)c2cc(O)cc(O)c21 [Compound 67]
1.92

Quick check: GI50 of CCCCN1c2c(O)cccc2C(=O)N(C/C=C(\C)CC/C=C(\C)CCC=C(C)C)c2cc(O)cc(O)c21 [Compound 64] ?
1.39

What value of GI50 has been recorded for this entry: COC(C)(CCC=C(C)C)CCC/C(C)=C/CN1C(=O)c2cccc(O)c2Nc2c(O)cc(O)cc21 (stereo not shown) [Compound 83]
6.71

For CC(=O)NC(C)(CCC=C(C)C)CCC/C(C)=C/CN1C(=O)c2cccc(O)c2Nc2c(O)cc(O)cc21 (stereo not shown) [Compound 92] , what is its reported GI50?
11.1

Which GI50 is listed for CCCN1c2c(O)cccc2C(=O)N(C/C=C(\C)CC/C=C(\C)CCC=C(C)C)c2cc(O)cc(O)c21 [Compound 63] ?
2.27

Origin of values: patent US20060079512A1
